Where these numbers come from: PubChem BioAssay

# assay.explanation: small-molecule microarray binders of probe aDKK1, primary screen, biochemical, biotinylated probe, 635/667 nm fluorescence (AID 1099);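 note: score merges 667nm spot fluorescence with signal to noise across triplicate slides; reference of the scale not given here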
# conditions.used: higher = more signal
parameter.measured: composite z-score

[N-]=[N+]=NCc1ccccc1[C@@H]1OC(c2ccc(OCCCO)cc2)=N[C@]1(Cc1ccccc1N=[N+]=[N-])C(=O)NCCN1CCOCC1; 0.251
CC=CC(O)C1C=CC2C(=O)NC(=O)C2N1Nc1ccccn1 (configuration not stated); -0.0419
COCCOC(=O)N1C(=O)[C@@]2(c3cc(C#Cc4ccc(OC)cc4)ccc31)[C@H](c1ccc(OCCO)cc1)N1[C@H](c3ccccc3)[C@H](c3ccccc3)OC(=O)[C@H]1[C@@H]2C(=O)Nc1nc2ccccc2s1; 0.636
O=C1C2C=CC(C(O)c3ccco3)N(Nc3ccccc3)C2C(=O)N1c1ccccc1 (configuration not stated); 0.144
NC(=O)[C@H]1[C@@H]2C(=O)O[C@@H](c3ccccc3)[C@@H](c3ccccc3)N2[C@@H](c2ccc(O)cc2)[C@]12C(=O)Nc1ccccc12; -0.352
CCCCNC(=O)c1ccc(C#C[Si](C(C)C)(C(C)C)C(C)C)c(OC(C)=O)c1; -0.0188
CCCC=C(CCC)[C@@H](NC(=O)CCc1ccccc1)c1ccc(C(F)(F)F)cc1; 0.256
C=C(C)C1CCC(C(O)C2C=CC3C(=O)N(C)C(=O)C3N2Nc2cc(OC)c(OC)c(OC)c2)CC1 (configuration not stated); 0.005
CCCNC(=O)[C@@]1(Sc2ccc(C)cc2)CC(=O)N(C2CCCCC2)[C@@H]1c1ccc(CO)cc1I; 0.548
COc1cc2c(cc1O)C(c1cccs1)N(Cc1sc3ccccc3c1Cl)CC2 (configuration not stated); 0.525
C=CC[C@H](OC(=O)Nc1ccc(SC)cc1)c1ccc(OCCO)cc1; -0.164
[N-]=[N+]=Nc1ccccc1C[C@]1(C(=O)O)N=C(c2ccc(OCCCO)cc2)O[C@H]1c1ccccc1N=[N+]=[N-]; 1.06
CC(C)CNC(=O)[C@@]1(c2ccc([N+](=O)[O-])cc2)CC(=O)N(C2CCCCC2)[C@@H]1c1ccc(CO)cc1; 0.368
C=C(COC)C(=O)CC[C@H](OC(=O)c1cccnc1)c1ccc(CO)o1; -0.424
O=C1C2C=CC(C(O)C=Cc3ccc([N+](=O)[O-])cc3)N(Nc3ccccc3)C2C(=O)N1c1ccccc1 (configuration not stated); -0.0814
CCOC(=O)C=Cc1cc(F)ccc1O; -0.137
O=c1cccc(-c2ccc(F)cc2)o1; 0.328
CN(C)C(=O)[C@@]1(Cc2ccccc2)COC(c2ccc(OCCCO)cc2)=N1; -0.246
CCCCCN1CC=CC23O[C@@H]4/C=C\CCC(C)OC(=O)C4[C@H]2C(=O)N(CCCCCCO)[C@@H]3C1=O (some centres not stated); -0.219
CC1(C)C(=O)C(c2ccccc2)=C2CN3C(=O)N(CCc4ccccc4)C(=O)C3(Cc3ccc(C(F)(F)F)cc3)C=C21 (configuration not stated); 1.01
C=C(CCCC)C(=O)CC[C@@H](OC(=O)c1cccnc1)c1ccc(OCCO)cc1; -0.191
COC(=O)[C@@]1(Cc2ccc(F)cc2)[C@H]2c3cc(C(=O)N4CCCC4)n(C)c3C[C@H]2CN1C(=O)c1ccccc1; 0.874
CCOC(=O)C1=C[C@@H](c2ccccc2)N(S(=O)(=O)c2ccc(C)cc2)[C@H]1c1ccccc1; 0.0612
CCOC(=O)C[C@H]1[C@H](OC(=O)c2ccccc2-c2ccccc2)[C@@H](NC(=O)c2ccc3ccccc3n2)c2cc(OCCCO)ccc2N1C(=O)c1ccccc1; -0.269
CCCCCN1CC=CC23O[C@@H]4C=CCOC(=O)[C@@H]4[C@H]2C(=O)N(CCO)[C@@H]3C1=O (some centres not stated); -0.314
COc1cc(NN2C(C(O)c3ccccc3)C=CC3C(=O)N(C)C(=O)C32)cc(OC)c1OC (configuration not stated); 0.195
CC(C)C(=C=CC[C@@H](O)c1cccc(OCCO)c1)C[C@@H](O)COCc1ccccc1; -0.119
CCOC(=O)C1=CC[C@@H](c2ccccc2)N(S(=O)(=O)c2ccc(C)cc2)[C@H]1c1cccc(OC)c1; 0.708
CC(C)C(CO)N1C(=O)[C@@H]2[C@H]3C(=O)OCC=C[C@H]3OC23C=CCN(C(C)(C)C)C(=O)[C@@H]13 (some centres not stated); -0.293
COc1ccc(NC(=O)O[C@H]2[C@@H]3OC(=O)[C@H](Cc4cccc(Br)c4)C/C=C/C[C@@H](Cc4cccc(Br)c4)C(=O)O[C@H]3[C@@H](OC)O[C@@H]2CO)cc1; 0.13
CCc1cccc(NC(=O)O[C@H]2[C@H](OC(=O)Nc3ccccc3)[C@H](OC(=O)Nc3ccccc3)[C@@H](OC)O[C@@H]2CO)c1; 0.22
C=CCNC(=O)[C@H]1[C@@H]2C(=O)O[C@@H](c3ccccc3)[C@@H](c3ccccc3)N2[C@@H](c2ccc(OCCO)cc2)[C@]12C(=O)Nc1ccc(C#CCNC(N)=O)cc12; 0.867

###

Reported composite z-score values are given for each entry in this list.
# assay.explanation: binders of probe aFST on microarray, primary screen, stem cell growth factor project, biochemical, small-molecule microarray, fluorescence 635/667 (AID 1086);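 note: score merges 667 nm fluorescence with signal-to-noise of each printed compound spot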
# conditions.used: higher = more signal
parameter.measured: composite z-score

NC(=O)[C@H]1[C@@H]2C(=O)O[C@@H](c3ccccc3)[C@@H](c3ccccc3)N2[C@@H](c2ccc(O)cc2)[C@]12C(=O)Nc1ccccc12; -0.442
CC(C)[Si]1(C(C)C)OCc2cc(-c3ccc(-c4ccc(Cl)c(Cl)c4)o3)nc(CCc3ccccc3)c21; -0.0731
CC(C)CCC[C@@H](C)[C@H]1CC[C@@]2(C)C3=C(CC[C@]12C)[C@@]1(C)CC[C@H](OC(=O)c2ccccc2)C(C)(C)C1CC3 (some centres undefined); 0.526
O=C1C[C@@](C(=O)NCc2ccccc2)(c2ccc([N+](=O)[O-])cc2)[C@@H](c2ccc(CO)cc2I)N1CC12CC3CC(CC(C3)C1)C2; 0.572

###

# assay.explanation: yeast growth modulation, basal conditions, primary screen, YJM789 clinical isolate, OD600, 24 h (AID 1089);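 note: growth of clinical yeast isolate S. cerevisiae YJM 789 seeded 1000 cells per well; test concentration not given here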
# conditions.used: S. cerevisiae YJM789 growth, higher = more signal, called active from +8 up or from −8 down
parameter.measured: z-score

C=C/C=C/[C@@H]1C(=C)CN([C@@H](Cc2ccccc2)C(=O)OC)[C@H]1[C@@H](O)Cc1ccccc1; -0.03
COCCOC(=O)N1C(=O)[C@@]2(c3cc(C#CCNC(N)=O)ccc31)[C@H](c1ccc(OCCO)cc1)N1[C@H](c3ccccc3)[C@H](c3ccccc3)OC(=O)[C@H]1[C@@H]2C(=O)NC[C@H](O)c1ccccc1; 2.3
CO[C@H]1O[C@H](CO)[C@@H](OC(=O)c2ccc(Br)cc2)[C@@H]2OC(=O)[C@H](Cc3ccccc3)C/C=C/C[C@@H](Cc3ccccc3)C(=O)O[C@@H]12; -1.92
CN1C=C(C(=O)OCCS(C)(=O)=O)C(C(=O)OCCS(C)(=O)=O)=CC(c2ccc(CO)cc2)=CC1c1cccs1 (stereo unspecified); 0.379
COc1cc(NN2C(C(O)C3CCCCC3)C=CC3C(=O)N(C)C(=O)C32)cc(OC)c1OC (stereo unspecified); 0.137
COC(=O)[C@@]1(Cc2ccc(OC)cc2)[C@H]2c3cc(C(=O)N4CCCC4)n(Cc4ccc(OC(F)(F)F)cc4)c3C[C@H]2CN1C(=O)c1ccccc1; 0.59

###

# assay.explanation: MM1S cell viability effects, profiling panel, calcein-AM fluorescence, 48 h, basal (AID 1165);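 note: viability of MM1S multiple myeloma cells under basal unstimulated conditions; test concentration not given here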
# conditions.used: higher = more signal
parameter.measured: z-score

O=C1OCCC=C[C@H]2OC34C=CCN(c5ccc(Cl)cc5)C(=O)[C@H]3N(CCCCCCO)C(=O)[C@@H]4C12 (some centres not stated); 1.69
C=CCC(OC(C)=O)[C@@H]1[C@@H](N(Cc2cccc3ccccc23)C(=O)c2ccc(-c3ccccc3)cc2)c2cc(OCCCO)ccc2N1C(=O)c1ccc(-c2ccccc2)cc1 (some centres not stated); -0.484
Cc1ccccc1C(O)C1C=CC2C(=O)NC(=O)C2N1Nc1ccc(Cl)cc1Cl (configuration not stated); -2.93
NCCCCCNC(=O)[C@H]1C[C@H]2C(=O)N[C@@H](Cc3ccccc3)C(=O)N2[C@H]1c1ccc(O)cc1; 0.309
C=C(/C(=C/C[C@H](OC(=O)c1ccncc1)c1cccc(OCCO)c1)c1cnc2ccccc2c1)C(C)C; -3.07
C=C[C@H](C)[C@H](OC(=O)Nc1ccc(OC)cc1)c1ccc(OCCO)cc1; -0.412
COc1ccc(C#Cc2ccc3c(c2)[C@]2(C(=O)N3)[C@H](C(=O)Nc3nc4ccccc4s3)[C@H]3C(=O)O[C@H](c4ccccc4)[C@H](c4ccccc4)N3[C@@H]2c2ccccc2OCCO)cc1; -0.708
